- target of assay: MAPK13 (human) (UniProt O15264)
- Sequence (O15264 whole entry, looked up): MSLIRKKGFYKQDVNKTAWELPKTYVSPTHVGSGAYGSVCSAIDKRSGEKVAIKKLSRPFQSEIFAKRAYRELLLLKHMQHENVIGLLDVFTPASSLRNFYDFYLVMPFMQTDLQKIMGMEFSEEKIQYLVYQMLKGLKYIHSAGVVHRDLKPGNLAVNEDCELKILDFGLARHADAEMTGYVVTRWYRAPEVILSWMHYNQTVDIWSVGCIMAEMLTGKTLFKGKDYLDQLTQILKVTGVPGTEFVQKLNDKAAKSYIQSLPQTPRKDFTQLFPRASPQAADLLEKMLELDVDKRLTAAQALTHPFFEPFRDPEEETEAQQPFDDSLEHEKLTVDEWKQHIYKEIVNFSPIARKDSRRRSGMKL
- method: radiometric filter-binding kinase assay, Kinase HotSpot
- condition info: compound 0.5 µM; ATP 10 µM
measured property: residual activity (%)
Just the number in %, nothing appended.

Query: Consider the molecule Cn1c2ccccc2c2c3c(c4c5ccccc5n(CCC#N)c4c21)CNC3=O and give its recorded residual activity.
Result: 104

Query: Consider the molecule Cc1nc(-c2ccccc2)c(-c2ccncc2)o1 and give its recorded residual activity.
Result: 114

Query: Consider the molecule O=C(c1cc2cc(O)ccc2[nH]1)c1cc2cc(O)ccc2[nH]1 and give its recorded residual activity.
Result: 108

Query: Consider the molecule CC(C)(C)c1cc(C=C(C#N)C#N)cc(Br)c1O and give its recorded residual activity.
Result: 98.5

Query: Consider the molecule COc1ccc2c(c1)/C(=C/c1cnc[nH]1)C(O)=N2 and give its recorded residual activity.
Result: 102

Query: Consider the molecule Fc1ccc(-c2nc3n(c2-c2ccncc2)CCS3)cc1 and give its recorded residual activity.
Result: 111

Query: Consider the molecule COc1ccc2c(c1)c(C1=C(c3c[nH]c4ccccc34)C(=O)NC1=O)cn2CCCN(C)C and give its recorded residual activity.
Result: 108

Query: Consider the molecule COc1cc2ncnc(Nc3ccc(OCc4ccccc4)cc3)c2cc1OC and give its recorded residual activity.
Result: 103
